Target: HIV-1 NefNL4-3 (Human immunodeficiency virus type 1 group M subtype B, UniProt P03406, A33V/T15A/T51N/V11I)
Experiment: Surface plasmon resonance binding to recombinant full-length Nef (NL4-3)
quantity measured: Kd
Write down the value, and be sure its unit follows.

compound: Cc1ccn(CCc2c(-c3ccc(C(F)(F)F)cc3)nn(-c3nc4ccc(Cl)cc4[nH]3)c2O)n1
quantity measured: Kd
measured result: 1010 nM

compound: Oc1c(CCC2CCN(CC(F)(F)F)CC2)c(-c2ccc(C(F)(F)F)cc2)nn1-c1nc2ccccc2[nH]1
quantity measured: Kd
measured result: 472 nM

compound: CC(C)(C)OC(=O)N1C[C@@H]2[C@H](C1)[C@H]2c1nn(-c2nc3ccccc3[nH]2)c(O)c1CCc1ccc(F)cc1
quantity measured: Kd
measured result: 776 nM

Entry `COC(=O)N1CCC(CCc2c(-c3ccc(C(F)(F)F)cn3)nn(-c3nc4ccccc4[nH]3)c2O)CC1` , Kd reported as 686 nM

###

Test system: TZM-bl cell line
Type: cell-based
Conditions: human, 1 μM
quantity measured: Percent Viability @ 1 μM (TZM-bl cells) (%)
Write the value in % as a bare number.

line notation: Oc1c(CCc2ccc(F)cc2)c(C2CCOCC2)nn1-c1nc2ccccc2[nH]1
tested target: TZM-bl cell line
unit spec: %
Percent Viability @ 1 μM (TZM-bl cells): 99.5
--
line notation: COC(=O)N1CCC(c2nn(-c3nc4ccccc4[nH]3)c(O)c2CCc2ccc(F)cc2)CC1
tested target: TZM-bl cell line
unit spec: %
Percent Viability @ 1 μM (TZM-bl cells): 89.8

Entry `CN(C)S(=O)(=O)N1CCC(c2nn(-c3nc4ccccc4[nH]3)c(O)c2CCc2ccc(F)cc2)CC1` , Percent Viability @ 1 μM (TZM-bl cells) reported as 101.6

Entry `Oc1c(CCc2ccc(F)cc2)c(-c2ccc3c(c2)OC(F)(F)O3)nn1-c1nc2ccccc2[nH]1` , Percent Viability @ 1 μM (TZM-bl cells) reported as 98.2

###

Target: HIV-1 NefNL4-3 (Human immunodeficiency virus type 1 group M subtype B, UniProt P03406, A33V/T15A/T51N/V11I)
Experiment: Surface plasmon resonance binding to recombinant full-length Nef (NL4-3)
quantity measured: Kd
Write down the value, and be sure its unit follows.

Below: 5 compounds and their reported Kd.
compound: Oc1c(CCc2ccc(F)cc2)c(-c2cccc(Cl)c2)nn1-c1nc2ccccc2[nH]1
measured result: 2010 nM

compound: Nc1c(CCC2CCOCC2)c(-c2ccc(F)cc2)nn1-c1cc(C(F)(F)F)n[nH]1
measured result: 4750 nM

compound: CC(C)(C)OC(=O)N1CCC[C@H]1c1nn(-c2nc3ccccc3[nH]2)c(O)c1CCc1ccc(F)cc1 (stereo in doubt)
measured result: 1090 nM

compound: Oc1c(CCc2ccc(F)cc2)c(C2CCCO2)nn1-c1nc2ccccc2[nH]1 (stereo not drawn)
measured result: 160 nM

compound: C=CCc1c(-c2ccc(C(F)(F)F)cc2)nn(-c2nc3ccccc3[nH]2)c1O
measured result: 687 nM

From here, focus on the item given below.
Entry O=S(=O)(c1cccnc1)N1CCCC(c2nn(-c3nc4ccccc4[nH]3)c(O)c2CCc2ccc(F)cc2)C1 (stereo not drawn) , Kd reported as 63.1 nM

###

Tested on: TZM-bl cell line
Assay type: cell-based
Conditions: human, 1 μM
# maps each entry to its % Cell Viability
Write the value in % as a bare number.

Below: 3 molecules and their reported % Cell Viability.
molecule: Oc1c(CC2CCOCC2)c(-c2cccc(F)c2)nn1-c1nc2ccccc2[nH]1
unit spec: %
measured result: 100
//
molecule: Oc1c(CCc2ccc(F)cc2)c(-c2ccc(C(F)(F)F)cc2)nn1-c1cc(C(F)(F)F)n[nH]1
unit spec: %
measured result: 100
//
molecule: Oc1c(CCc2ccc(F)cc2)c(C2CCN(Cc3cccnc3)CC2)nn1-c1nc2ccccc2[nH]1
unit spec: %
measured result: 100

Entry `CS(=O)(=O)N1CCC(c2nn(-c3nc4cc(Cl)ccc4[nH]3)c(O)c2CCC2CCOCC2)CC1` , % Cell Viability reported as 98.6

Entry `Cc1ccn(CCc2c(-c3ccc(C(F)(F)F)cc3)nn(-c3nc4ccc(Cl)cc4[nH]3)c2O)n1` , % Cell Viability reported as 96.6

Entry `Oc1c(CC2CCOCC2)c(-c2ccccc2)nn1-c1nc2ccccc2[nH]1` , % Cell Viability reported as 100

Entry `CC(C)(C)OC(=O)c1ccc(-c2nn(-c3nc4ccccc4[nH]3)c(O)c2CCc2ccc(F)cc2)cc1` , % Cell Viability reported as 90.6

Entry `O=C(OCc1ccccc1)N1CCC(Cc2c(-c3ccc(C(F)(F)F)cc3)nn(-c3nc4ccccc4[nH]3)c2O)CC1` , % Cell Viability reported as 90.8

Entry `CS(=O)(=O)N1CCC(CCc2c(-c3ccc(C(F)(F)F)cn3)nn(-c3nc4ccccc4[nH]3)c2O)CC1` , % Cell Viability reported as 97.1

Entry `CS(=O)(=O)N1CCC(CCc2c(-c3ccc(C(F)(F)F)cn3)nn(-c3nc4cc(Br)ccc4[nH]3)c2O)CC1` , % Cell Viability reported as 72.9

Entry `Oc1c(CCc2ccc(F)cc2)c(-c2ccc(C(F)(F)F)cc2)nn1-c1nc2ccncc2[nH]1` , % Cell Viability reported as 99.1

Entry CC(C)(C)OC(=O)N1CCC[C@H]1c1nn(-c2nc3ccccc3[nH]2)c(O)c1CCc1ccc(F)cc1 (stereo in doubt) , % Cell Viability reported as 95.6

Entry `Oc1c(CCc2ccc(F)cc2)c(C2CCOCC2)nn1-c1nc2cccnc2[nH]1` , % Cell Viability reported as 100

Entry `CC(=O)N1CCC(CCc2c(-c3ccc(C(F)(F)F)cn3)nn(-c3nc4cc(Br)ccc4[nH]3)c2O)CC1` , % Cell Viability reported as 74.0

Entry `O=C(NCC1CC1)c1ccc(-c2nn(-c3nc4ccccc4[nH]3)c(O)c2CCc2ccc(F)cc2)cc1` , % Cell Viability reported as 95.4

###

Tested on: TZM-bl cell line
Assay type: cell-based
Conditions: human, 1 μM
quantity measured: % Cell Viability (%)
Write the value in % as a bare number.

Below: 5 compounds and their reported % Cell Viability.
compound: CC(C)(C)c1nn(-c2nc3ccccc3[nH]2)c(O)c1CC1CCOCC1 [Compound I-180]
% Cell Viability (%): 100
--
compound: Oc1c(CCc2ccc(F)cc2)c(-c2ccc(C(F)(F)F)cn2)nn1-c1nc2cc(F)ccc2[nH]1 [Compound I-167]
% Cell Viability (%): 81.2
--
compound: CS(=O)(=O)c1ccc(-c2nn(-c3nc4cc(Cl)ccc4[nH]3)c(O)c2CCC2CCNCC2)cc1 [Compound I-550]
% Cell Viability (%): 98.8
--
compound: Oc1c(CCc2ccc(F)cc2)c(-c2ccc(C(F)(F)F)cc2)nn1-c1nc2ccc(Cl)cc2[nH]1 [Compound I-161]
% Cell Viability (%): 89.9
--
compound: Oc1c(CC2CCOCC2)c(C2CC(F)(F)C2)nn1-c1nc2ccccc2[nH]1 [Compound I-176]
% Cell Viability (%): 98.4

From here, focus on the item given below.
Entry Oc1c(CCC2CCNCC2)c(C2CC2)nn1-c1nc2cc(Cl)ccc2[nH]1 [Compound I-554] , % Cell Viability reported as 95.0

###

Biological target: HIV-1 NefNL4-3 (Human immunodeficiency virus type 1 group M subtype B, UniProt P03406, A33V/T15A/T51N/V11I)
Test: Surface plasmon resonance binding to recombinant full-length Nef (NL4-3)
Details: response units at 30 μM relative to Nef immobilized on the SPR chip
Please use true (1) for RU30/RUNef (extent of binding) under 5 E- 03 and false (0) for everything else, ties included.

line notation: CS(=O)(=O)c1cccc(-c2nn(-c3nc4cccnc4[nH]3)c(O)c2CCC2CCOCC2)c1
assigned class: true (1)
//
line notation: Oc1c(CCC2CCOCC2)c(-c2cccc(F)c2)nn1-c1nc2ccccc2[nH]1
assigned class: true (1)
//
line notation: CC(C)OC(=O)N1CCC(c2nn(-c3nc4cc(Cl)ccc4[nH]3)c(O)c2CCC2CCOCC2)CC1
assigned class: false (0)
//
line notation: CC[C@H](C)[C@H](O)C(=O)N1CCC(c2nn(-c3nc4ccccc4[nH]3)c(O)c2CCc2ccc(F)cc2)CC1
assigned class: true (1)
//
line notation: O=C(OCc1ccccc1)N1CCC(Cc2c(-c3ccc(C(F)(F)F)cc3)nn(-c3nc4ccccc4[nH]3)c2O)CC1
assigned class: true (1)
//
line notation: Oc1c(CCc2ccc(F)cc2)c(CCCc2ccc(F)cc2)nn1-c1nc2cccnc2[nH]1
assigned class: false (0)
//
line notation: Oc1c(CCc2ccc(F)cc2)c(CC2CCN(CC(F)(F)F)CC2)nn1-c1nc2ccccc2[nH]1
assigned class: true (1)
//
line notation: Oc1c(CC2CCOCC2)c(C2CC2)nn1-c1nc2ccccc2[nH]1
assigned class: true (1)
//
line notation: CC(C)(C)OC(=O)N1CCC(CCc2c(-c3cccc(S(C)(=O)=O)c3)nn(-c3nc4ccccc4[nH]3)c2O)CC1
assigned class: false (0)
//
line notation: Oc1c(CCc2ccc(F)cc2)c(CNCc2cccnc2)nn1-c1nc2ccccc2[nH]1
assigned class: true (1)

Exercise: In plain terms, does `C[C@@](O)(C(=O)N1CCC(CCc2c(C3CC3)nn(-c3nc4ccccc4[nH]3)c2O)CC1)C(F)(F)F` come in under 5 E- 03 for RU30/RUNef (extent of binding)?
Key: true (1)

Exercise: In plain terms, does `CS(=O)(=O)N1CCC(c2nn(-c3nc4cc(Cl)ccc4[nH]3)c(O)c2CCn2nccn2)CC1` come in under 5 E- 03 for RU30/RUNef (extent of binding)?
Key: true (1)

Exercise: In plain terms, does `COC(=O)N1CCC(CCc2c(-c3ccc(C(F)(F)F)cn3)nn(-c3nc4cc(Br)ccc4[nH]3)c2O)CC1` come in under 5 E- 03 for RU30/RUNef (extent of binding)?
Key: true (1)

Exercise: In plain terms, does `Oc1c(CCC2CCOCC2)c(-c2cccc(F)c2)nn1-c1nc2cccnc2[nH]1` come in under 5 E- 03 for RU30/RUNef (extent of binding)?
Key: false (0)

Exercise: In plain terms, does `COC(=O)N1CCC(CCc2c(-c3ccc(C(F)(F)F)cn3)nn(-c3nc4ccccc4[nH]3)c2O)CC1` come in under 5 E- 03 for RU30/RUNef (extent of binding)?
Key: false (0)

Exercise: In plain terms, does `COC(=O)N1CCC(c2nn(-c3nc4ccccc4[nH]3)c(O)c2CCc2ccc(F)cc2)CC1` come in under 5 E- 03 for RU30/RUNef (extent of binding)?
Key: false (0)

Exercise: In plain terms, does `Oc1c(CC2CCOCC2)c(-c2ccc(F)cc2F)nn1-c1nc2ccccc2[nH]1` come in under 5 E- 03 for RU30/RUNef (extent of binding)?
Key: false (0)

Exercise: In plain terms, does `Oc1c(CCc2ccc(F)cc2)c(-c2ccc(C(F)(F)F)cn2)nn1-c1nc2ccccc2[nH]1` come in under 5 E- 03 for RU30/RUNef (extent of binding)?
Key: false (0)

This collection of values is drawn from patent US20220380341A1.
